tested on: INS-1 cells; test: Insulin secretion assay in INS-1 cells (glucose at 4.2 mM); assay type: cell-based; details: Rattus norvegicus, INS1, glucose 4.2 mM, compound 10 μM, 1 h incubation, read-out: Insulin secretion, % of ctrl at 10 μM
activity at 10 µM: recorded values
PARAMETER MEASURED: activity at 10 µM (%)

> print(dat)
                                 chem.smiles  parameter.measured  reported
 1    CCCCn1ccnc(S(=O)(=O)Cc2ccc(Cl)cc2)c1=O   activity at 10 µM       153
 2      CCCn1ccnc(S(=O)(=O)Cc2ccc(C)cc2)c1=O   activity at 10 µM       144
 3      CCn1ccnc(S(=O)(=O)Cc2ccc(Br)cc2)c1=O   activity at 10 µM       164
 4      CCn1ccnc(S(=O)(=O)Cc2ccc(Cl)cc2)c1=O   activity at 10 µM       142
 5  CCn1cc(-c2ccc(Cl)cc2)nc(S(=O)(=O)Cc2ccc(Cl)cc2)c1=O   activity at 10 µM       181
 6       CCCCn1ccnc(S(=O)(=O)Cc2ccccc2F)c1=O   activity at 10 µM       108
 7          CCn1ccnc(S(=O)(=O)Cc2ccccc2)c1=O   activity at 10 µM       128
 8      CCCn1ccnc(S(=O)(=O)Cc2ccc(F)cc2)c1=O   activity at 10 µM       142
 9  CCn1cc(Cl)nc(S(=O)(=O)CC(=O)N2CCCCC2)c1=O   activity at 10 µM       159
10     CCCn1ccnc(S(=O)(=O)Cc2ccc(Cl)cc2)c1=O   activity at 10 µM       155
11    CCCn1ccnc(S(=O)(=O)CCc2ccc(Cl)cc2)c1=O   activity at 10 µM       127
12  CCCCn1ccnc(S(=O)(=O)Cc2cccc(C(F)(F)F)c2)c1=O   activity at 10 µM       187

---

test system: INS-1 cells; assay: Insulin secretion assay in INS-1 cells (glucose at 4.2 mM); format: cell-based; conditions: Rattus norvegicus, INS1, glucose 4.2 mM, compound 50 μM, 1 h incubation, read-out: Insulin secretion, % of ctrl at 50 μM
Label t when activity at 50 µM is strictly below 300%; otherwise label f.

> print(dat)
                                chem.smiles  category.label
1  CCCCn1ccnc(S(=O)(=O)Cc2cccc(C(F)(F)F)c2)c1=O               t
2    CCCn1ccnc(S(=O)(=O)CCc2ccc(Cl)cc2)c1=O               t
3     CCCn1ccnc(S(=O)(=O)Cc2ccc(Cl)cc2)c1=O               f
4          CCn1ccnc(S(=O)(=O)Cc2ccccc2)c1=O               t
5      CCn1ccnc(S(=O)(=O)Cc2ccc(Cl)cc2)c1=O               t

---

melting point: recorded values
PARAMETER MEASURED: melting point

> print(dat)
                                 chem.smiles       reported
 1  CCn1cc(-c2ccccc2)nc(S(=O)(=O)Cc2ccc(Cl)cc2)c1=O  146 to 148 °C
 2    CCn1ccnc(S(=O)(=O)CCOc2ccc(OC)cc2)c1=O  100 to 103 °C
 3      CCn1ccnc(S(=O)(=O)Cc2ccc(Br)cc2)c1=O  135 to 138 °C
 4        CCn1cc(Cl)nc(SCC(=O)Nc2ccccc2)c1=O  156 to 158 °C
 5      CCCn1ccnc(S(=O)(=O)Cc2ccc(F)cc2)c1=O  123 to 125 °C
 6  CCn1cc(Cl)nc(S(=O)(=O)CC(=O)Nc2ccccc2)c1=O  178 to 180 °C
 7  CCn1cc(Br)nc(S(=O)(=O)Cc2ccc(Cl)cc2)c1=O  145 to 147 °C
 8      CCCn1ccnc(S(=O)(=O)Cc2ccc(C)cc2)c1=O  128 to 130 °C
 9      CCn1ccnc(S(=O)(=O)Cc2ccc(Cl)cc2)c1=O  115 to 118 °C
10     CCCn1ccnc(S(=O)(=O)Cc2ccc(Cl)cc2)c1=O  125 to 128 °C
11         CCCn1ccnc(S(=O)(=O)Cc2ccccc2)c1=O  133 to 135 °C
